Could you please report measured IC50 for the items listed next?
Test system: CEM cells HIV-1 protection, formazan growth assay
Assay: NCI AIDS Antiviral Assay
Conditions: measured here: growth of uninfected CEM cells

// CC1NC(=O)COC1c1ccccc1 (stereo not drawn) : IC50 value = > 200 µM

// O=S(=O)(O)C(I)S(=O)(=O)O : IC50 value = > 200 µM

// O=C(/C=C/c1ccccc1Cl)c1ccc(Cl)cc1Cl : IC50 value = > 3.31 µM

// CCOC(=O)C(=O)/C=C(\C)Nc1c(NC2OCC(OC(C)=O)C(OC(C)=O)C2OC(C)=O)nc(SC)[nH]c1=O (stereo not drawn) : IC50 value = > 87.1 µM

// CCc1nnc(CC)n1NCCCC(=O)O : IC50 value = > 200 µM

// CCCCCCCCCCCCCCCC=C(c1cc(Cl)c(OC)c(C(=O)OC)c1)c1cc(Cl)c(OC)c(C(=O)OC)c1 : IC50 value = > 6.61 µM

// O=c1/c(=C/c2ccc3c(c2)OCO3)sc2nnc(-c3ccco3)n12 : IC50 value = > 55 µM

// COC(=O)C1(C(=O)OC)N=C(C)OC1/C=C/c1ccccc1 (stereo not drawn) : IC50 value = > 100 µM

// COc1ccc2cc(C(C)C(=O)N3CCOC3=O)ccc2c1 (stereo not drawn) : IC50 value = > 200 µM

// CC(=S)NC1C(Oc2ccc3c(C)cc(=O)oc3c2)OC(CO)C(O)C1O (stereo not drawn) : IC50 value = > 200 µM

// Cc1ccccc1/C=C/c1csnn1 : IC50 value = > 129 µM

// [N-]=[N+]=Nc1ccc(CNc2cc(=O)[nH]c(=O)[nH]2)cc1 : IC50 value = > 200 µM

// NC(N)=N/N=C/c1ccc[nH]1 : IC50 value = > 200 µM

====

Test system: CEM cells HIV-1 protection, formazan growth assay
Experiment: NCI AIDS Antiviral Assay;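 active means compounds giving half or more protection of infected cells from virus-caused growth loss, again on retest; inactive means the rest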
*1 amine or outer side, *2 acyl side, *3 side chain or, on linkers, in order; H or OH if unused. Where a SMILES comes first, the peptide text is derived from it. Bridges are numbered along the chain shown (N, C = ends). [ ]: non-standard residue; d: D form. The star is where a group is joined. ξ: configuration not given here. γ4hArg(2R,3R-(OH)2) = N=C(N)NCCC[C@H](N[*:1])[C@@H](O)[C@@H](O)C(=O)[*:2]; Gln(3S,4R-Me2) = C[C@H]([C@H](N)C(=O)O)[C@@H](C)C(N)=O; X5 = CC(C)C[C@H](C)[C@@H](O)[C@@H](C)C(=O)*; X6 = COC(c1ccc(O)cc1)C(N[*:1])C(=O)[*:2]; NMeQ = CN[C@@H](CCC(N)=O)C(=O)O; Thr(3ξ) = CC(O)[C@H](N)C(=O)O; NMeA = CN[C@@H](C)C(=O)O; Boc = CC(C)(C)OC(=O)*; OSu = O=C1CCC(=O)N1O*
Classes to choose from: TRUE for active, FALSE for inactive

Prompt: Lab log entry: CC1=CC(=O)N(n2c(Cc3ccccc3)n[nH]c2=O)C1=O — outcome as called in the assay?
Completion: FALSE

Prompt: Lab log entry: NC1=CN2c3ccccc3N(CC(=O)N3CCOCC3)C2C=C1 (stereo not given) — outcome as called in the assay?
Completion: FALSE

Prompt: Lab log entry: O=C1CN(S(=O)(=O)c2ccc([N+](=O)[O-])cc2)CC(=O)CN(S(=O)(=O)c2ccc([N+](=O)[O-])cc2)C1 — outcome as called in the assay?
Completion: FALSE

Prompt: Lab log entry: CC(NC(=O)C(NC(=O)OC(C)(C)C)C(C)C)C(=O)NCC(=O)ON1C(=O)CCC1=O (stereo not drawn) (Boc-Val-Ala-Gly-OSu; configuration not given here) — outcome as called in the assay?
Completion: FALSE

Prompt: Lab log entry: O=C1NC(=S)S/C1=C\c1ccc(Cl)cc1 — outcome as called in the assay?
Completion: FALSE

Prompt: Lab log entry: O=C(CCC1C(=O)NC(=S)NC1=O)c1ccc2ccccc2c1 — outcome as called in the assay?
Completion: FALSE

Prompt: Lab log entry: CCCCNC(=O)CNC(=O)c1ccccc1SC(=O)CCCC[n+]1ccccc1 — outcome as called in the assay?
Completion: FALSE

Prompt: Lab log entry: Nc1nc(N)c(N=O)c(=O)[nH]1 — outcome as called in the assay?
Completion: FALSE

Prompt: Lab log entry: O=C(O)c1cccc(S(=O)(=O)c2ccccc2)c1 — outcome as called in the assay?
Completion: FALSE

Prompt: Lab log entry: COC1/C=C/OC2(C)Oc3c(C)c(O)c4c(O)c(c(C=NN5C(C)CN(Cc6ccc(Cl)cc6)CC5C)c(O)c4c3C2=O)NC(=O)/C(C)=C/C=C/C(C)C(O)C(C)C(O)C(C)C(OC(C)=O)C1C (stereo not given) — outcome as called in the assay?
Completion: FALSE

Prompt: Lab log entry: CO/C(=N\N=C(/C)C(F)(F)F)c1ccncc1 — outcome as called in the assay?
Completion: FALSE

Prompt: Lab log entry: COC(c1ccc(O)cc1)C1NC(=O)[C@H](CCC(N)=O)N(C)C(=O)[C@H](CC(C)C)NC(=O)[C@@H](CCCN=C(N)N)NC(=O)[C@H](C(C)O)NC(=O)[C@@H](NC(=O)[C@@H](NC(=O)[C@H](O)[C@H](O)[C@H](CCCN=C(N)N)NC(=O)[C@H](C)NC(=O)[C@H](C)[C@H](O)[C@@H](C)CC(C)C)[C@@H](C)[C@@H](C)C(N)=O)[C@@H](C)OC(=O)[C@H](C)N(C)C1=O (stereo partly drawn) (X5-A[γ4hArg(2R,3R-(OH)2)][Gln(3S,4R-Me2)]T[Thr(3ξ)][dR]L[NMeQ][X6][NMeA]; ester 4-C) — outcome as called in the assay?
Completion: TRUE

Prompt: Lab log entry: Cc1cccnc1NC(=S)Nc1cccc(C(F)(F)F)c1 — outcome as called in the assay?
Completion: FALSE

Prompt: Lab log entry: CC1=CC(C)(C)SC(SSSC2=NC(C)=CC(C)(C)S2)=N1 — outcome as called in the assay?
Completion: FALSE

Prompt: Lab log entry: CCCCCCCCCCCCCOC(=O)CC(C(=O)OCCCCCCCCCCCCC)S(=O)(=O)O (stereo not given) — outcome as called in the assay?
Completion: FALSE

Prompt: Lab log entry: Cc1cc2c(cc1C)NC(=O)C(C)CN2 (stereo not given) — outcome as called in the assay?
Completion: FALSE

Prompt: Lab log entry: O=C1COc2cccnc2N1CCCCO — outcome as called in the assay?
Completion: FALSE

Prompt: Lab log entry: N#Cc1c(=O)n(-c2ccccc2)c(O)c2c(N)n[nH]c12 — outcome as called in the assay?
Completion: FALSE

Prompt: Lab log entry: CN1CCOC1(C)c1ccccc1 (stereo not given) — outcome as called in the assay?
Completion: FALSE

Prompt: Lab log entry: COc1cc2oc3c(C)c(=O)cc4oc(-c5ccccc5)cc(c2c2c1CCC(c1ccccc1)O2)c43 (stereo not given) — outcome as called in the assay?
Completion: FALSE

Prompt: Lab log entry: Cc1ccc2c(c1)C/C(=C\c1ccccc1C(=O)O)C2=O — outcome as called in the assay?
Completion: FALSE

Prompt: Lab log entry: C=C(c1cccn1S(=O)(=O)c1ccccc1)c1cccn1S(=O)(=O)c1ccccc1 — outcome as called in the assay?
Completion: FALSE

Prompt: Lab log entry: CC1Cn2c(c(-c3ccccc3)c(=O)[nH]c2=O)O1 (stereo not given) — outcome as called in the assay?
Completion: FALSE

Prompt: Lab log entry: CCCCc1cc(=O)oc2c3c(c4c(c12)OC(C)(C)CC4)O[C@@H](C)[C@H](C)[C@@H]3O — outcome as called in the assay?
Completion: TRUE

Prompt: Lab log entry: Sc1ccc2ccccc2c1CNC1CCCCC1 — outcome as called in the assay?
Completion: FALSE

Prompt: Lab log entry: COc1ccccc1NC(=O)C1=C(C)NC(C)=C(C(=O)Nc2ccccc2OC)C1c1ccc([N+](=O)[O-])cc1 — outcome as called in the assay?
Completion: FALSE

Prompt: Lab log entry: O=C(CC(=O)n1nc(-c2ccccc2)c(N=Nc2ccc([N+](=O)[O-])cc2)c1-c1ccccc1)Nc1ccc(Cl)cc1 — outcome as called in the assay?
Completion: FALSE

Prompt: Lab log entry: COc1ccc(N=C2[Se]C(=NC(=O)c3ccccc3)N(c3ccc(OC)cc3)C2=Nc2ccc(OC)cc2)cc1 — outcome as called in the assay?
Completion: FALSE

Prompt: Lab log entry: CC1(C)OC(=O)c2cc(C(=CCCO)c3cc(Cl)c4c(c3)C(=O)OC(C)(C)O4)cc(Cl)c2O1 — outcome as called in the assay?
Completion: FALSE

Prompt: Lab log entry: O=c1oc2c(-c3c(O)c(=O)oc4ccccc34)cc(O)cc2s1 — outcome as called in the assay?
Completion: FALSE

Prompt: Lab log entry: CCSc1n/c(=C\c2ccco2)c2nnnn12 — outcome as called in the assay?
Completion: FALSE

Prompt: Lab log entry: O=C(O)c1c2c(cc3c1CC1(Cc4cc5c(cc4C1=O)CCC5)C3)CCC2 (stereo not given) — outcome as called in the assay?
Completion: FALSE

Prompt: Lab log entry: N#Cc1cc2c(cc1C#N)/C(=N\c1cccc(N)n1)N=C2Nc1cccc(N)n1 — outcome as called in the assay?
Completion: FALSE

Prompt: Lab log entry: COc1cccc(C2c3cc4c(cc3OC(NNc3ccccc3)C2C)OCO4)c1OC (stereo not given) — outcome as called in the assay?
Completion: FALSE
